target: UniProt:Q15858; experiment: in-vitro Nav 1.7 PX data; assay type: cell-based; details: in-vitro PX
Sequence (Q15858 whole entry): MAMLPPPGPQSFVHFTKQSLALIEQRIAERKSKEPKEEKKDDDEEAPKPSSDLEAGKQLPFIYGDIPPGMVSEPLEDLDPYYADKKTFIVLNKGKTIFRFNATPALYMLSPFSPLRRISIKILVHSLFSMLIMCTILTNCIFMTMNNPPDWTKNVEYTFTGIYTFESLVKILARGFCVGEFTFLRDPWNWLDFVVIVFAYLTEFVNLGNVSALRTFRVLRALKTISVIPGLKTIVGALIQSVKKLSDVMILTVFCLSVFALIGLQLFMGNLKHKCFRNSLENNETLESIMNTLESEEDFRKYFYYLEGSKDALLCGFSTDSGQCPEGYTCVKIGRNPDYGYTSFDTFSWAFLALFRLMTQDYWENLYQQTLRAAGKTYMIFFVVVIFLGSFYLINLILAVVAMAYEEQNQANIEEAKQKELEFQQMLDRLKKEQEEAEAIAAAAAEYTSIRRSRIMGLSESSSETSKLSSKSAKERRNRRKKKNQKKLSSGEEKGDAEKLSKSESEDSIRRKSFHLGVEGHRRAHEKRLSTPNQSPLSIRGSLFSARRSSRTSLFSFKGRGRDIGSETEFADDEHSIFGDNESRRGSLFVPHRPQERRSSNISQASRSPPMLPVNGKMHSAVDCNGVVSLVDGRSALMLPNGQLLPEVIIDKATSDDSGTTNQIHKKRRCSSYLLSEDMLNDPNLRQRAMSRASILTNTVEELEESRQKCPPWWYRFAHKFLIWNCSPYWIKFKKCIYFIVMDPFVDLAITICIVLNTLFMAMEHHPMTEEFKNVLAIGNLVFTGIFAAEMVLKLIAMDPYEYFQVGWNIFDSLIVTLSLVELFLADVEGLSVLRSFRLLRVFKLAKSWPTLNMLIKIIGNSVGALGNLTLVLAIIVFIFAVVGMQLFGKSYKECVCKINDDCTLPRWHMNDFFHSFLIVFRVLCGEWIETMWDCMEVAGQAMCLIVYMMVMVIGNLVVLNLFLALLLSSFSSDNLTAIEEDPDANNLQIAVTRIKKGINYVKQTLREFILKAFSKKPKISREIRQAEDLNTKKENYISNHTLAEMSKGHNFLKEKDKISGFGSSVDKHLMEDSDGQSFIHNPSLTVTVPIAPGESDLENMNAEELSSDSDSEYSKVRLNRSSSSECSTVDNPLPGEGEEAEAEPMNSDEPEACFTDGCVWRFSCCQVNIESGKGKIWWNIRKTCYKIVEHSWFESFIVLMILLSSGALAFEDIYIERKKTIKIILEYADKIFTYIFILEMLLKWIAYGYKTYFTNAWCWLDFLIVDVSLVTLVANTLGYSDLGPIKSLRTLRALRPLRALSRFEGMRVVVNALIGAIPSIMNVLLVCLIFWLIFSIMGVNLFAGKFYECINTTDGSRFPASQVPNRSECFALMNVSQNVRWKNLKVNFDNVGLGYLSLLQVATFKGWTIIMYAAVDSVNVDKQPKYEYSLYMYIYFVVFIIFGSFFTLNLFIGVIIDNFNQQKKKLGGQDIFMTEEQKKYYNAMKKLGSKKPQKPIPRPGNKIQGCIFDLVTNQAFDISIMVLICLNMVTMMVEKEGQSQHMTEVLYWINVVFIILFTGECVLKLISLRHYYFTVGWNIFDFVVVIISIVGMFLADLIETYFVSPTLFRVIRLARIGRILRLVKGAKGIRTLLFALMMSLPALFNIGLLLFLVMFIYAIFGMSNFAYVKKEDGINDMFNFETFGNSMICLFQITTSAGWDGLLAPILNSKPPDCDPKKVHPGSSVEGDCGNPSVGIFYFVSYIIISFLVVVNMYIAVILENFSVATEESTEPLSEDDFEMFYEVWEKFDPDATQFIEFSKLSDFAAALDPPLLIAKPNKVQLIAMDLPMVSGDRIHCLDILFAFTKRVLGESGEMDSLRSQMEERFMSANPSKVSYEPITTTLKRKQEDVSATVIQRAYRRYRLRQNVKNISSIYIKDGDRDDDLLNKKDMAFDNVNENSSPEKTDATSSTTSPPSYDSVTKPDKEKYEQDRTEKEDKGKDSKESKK
pIC50: −log10 of the molar value.
MEASUREMENT_TYPE: pIC50

COc1cc(-c2cc(F)cc(F)c2)c(Cl)cc1-c1nn(C)c(=O)c2cc(S(=O)(=O)Nc3ccon3)ccc12 | 6.86
COc1cc(-c2cccc(F)c2)c(Cl)cc1-c1ncnc2cc(S(=O)(=O)Nc3ncon3)ccc12 | 7.07
COc1cc(-c2cc(F)cnc2OC)ccc1-c1ccnc2cc(S(=O)(=O)Nc3nncs3)ccc12 | 6.48
COc1cc(-c2cc(F)cc(F)c2)c(Cl)cc1-c1ncnc2cc(S(=O)(=O)Nc3ccon3)ccc12 | 7.84
COc1nc(N2CC(F)(F)C2)c(Cl)cc1-c1nccc2cc(S(=O)(=O)Nc3nncs3)ccc12 | 6.42

P = COc1nc(N2CCC(F)(F)CC2)c(Cl)cc1-c1nccc2cc(S(=O)(=O)Nc3nncs3)ccc12
Q = COc1cc(-c2cccc(F)c2)c(Cl)cc1-c1ncc(O)c2cc(S(=O)(=O)Nc3ccon3)ccc12
Query string: Decide: P or Q , by lowest recorded pIC50. Answer by quoting the chosen item's label.
Result string: P
(P: 6.37, Q: 7.07)
